Assayed Target: Somatostatin receptor type 1 (Homo sapiens, UniProt P30872)
Sequence (P30872 whole entry): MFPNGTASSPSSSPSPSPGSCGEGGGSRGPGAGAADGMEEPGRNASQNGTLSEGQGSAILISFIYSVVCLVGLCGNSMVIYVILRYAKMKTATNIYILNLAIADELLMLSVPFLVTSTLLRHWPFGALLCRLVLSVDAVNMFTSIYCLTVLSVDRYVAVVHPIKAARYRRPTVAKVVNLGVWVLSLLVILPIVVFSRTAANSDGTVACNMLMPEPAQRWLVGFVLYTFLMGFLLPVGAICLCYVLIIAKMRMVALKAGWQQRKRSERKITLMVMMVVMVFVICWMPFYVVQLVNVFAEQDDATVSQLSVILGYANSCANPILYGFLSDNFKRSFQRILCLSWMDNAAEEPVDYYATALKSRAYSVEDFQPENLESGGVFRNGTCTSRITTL
Readout Type: Ki (µM)
The reply should contain only the number, in µM.

Ki measured on NCCCc1nc(-c2c[nH]c3ccccc23)cn2cc(-c3ccccc3)nc12 = 3.3

* * *

Consider the following compounds and their measured Ki readings.
Assayed Target: Somatostatin receptor type 4 (Homo sapiens)
Sequence (P31391 whole entry): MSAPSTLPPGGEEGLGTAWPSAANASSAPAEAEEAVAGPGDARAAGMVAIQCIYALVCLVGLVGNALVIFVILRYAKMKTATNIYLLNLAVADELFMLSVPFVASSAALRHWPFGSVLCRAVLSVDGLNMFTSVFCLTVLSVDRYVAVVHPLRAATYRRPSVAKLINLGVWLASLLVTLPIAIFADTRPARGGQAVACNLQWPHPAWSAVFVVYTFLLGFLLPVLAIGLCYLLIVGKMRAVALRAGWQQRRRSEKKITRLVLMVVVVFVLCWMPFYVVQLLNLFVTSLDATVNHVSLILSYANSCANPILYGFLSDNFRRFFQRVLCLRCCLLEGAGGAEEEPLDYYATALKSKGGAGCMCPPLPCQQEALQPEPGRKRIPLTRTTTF
Assay Info: Inhibitory constant on human somatostatin receptor 4

Lookup result for NCCCc1nc(-c2csc3ccccc23)cn2cc(-c3ccccc3)nc12 ; measured Ki: 7.2 µM

* * *

Assayed Target: Somatostatin receptor type 5 (Homo sapiens)
Sequence (P35346 whole entry): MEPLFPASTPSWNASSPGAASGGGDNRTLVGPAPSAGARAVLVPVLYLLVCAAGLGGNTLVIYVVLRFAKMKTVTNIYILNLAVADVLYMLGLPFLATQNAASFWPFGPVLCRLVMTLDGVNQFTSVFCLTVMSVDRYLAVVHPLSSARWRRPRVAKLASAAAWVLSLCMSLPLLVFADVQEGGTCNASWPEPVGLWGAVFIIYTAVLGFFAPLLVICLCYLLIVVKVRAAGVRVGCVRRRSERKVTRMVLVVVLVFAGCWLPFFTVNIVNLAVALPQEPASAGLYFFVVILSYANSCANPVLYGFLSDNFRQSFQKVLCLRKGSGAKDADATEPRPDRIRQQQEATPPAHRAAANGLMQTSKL
Assay Info: Inhibitory constant on human somatostatin receptor 5
Readout Type: Ki (nM)
Please respond with the number in nM and leave the unit unwritten.

                           structure_string                            assayed_target  quantity_unit  result_value
0  NCCCc1nc(-c2csc3ccccc23)cn2cc(-c3ccccc3)nc12  Somatostatin receptor type 5 (Homo sapiens)             nM           600

Given item CC(C)(C(=O)NC1CCCCC1)c1cn2cc(-c3csc4ccccc34)nc(CCCN)c2n1 , the value recorded as its Ki is 360

Note to self: Ki recorded for NCCCc1nc(-c2c[nH]c3ccccc23)cn2cc(-c3ccccc3)nc12 was 790

CCCCNC(=O)C(C)(C)c1cn2cc(-c3csc4ccccc34)nc(CCCN)c2n1 has a reported Ki of 540

The reported value for CC(C)(C(=O)NCCc1c[nH]c2ccccc12)c1cn2cc(-c3csc4ccccc34)nc(CCCN)c2n1 in terms of Ki is 2300

Field Ki (entry CC(C)(C(=O)NCCc1c[nH]c2ccccc12)c1cn2cc(Cc3ccccc3)nc(CCCN)c2n1 ) reads 1200

Please fill in: Ki reported for NCCCc1nc(-c2cccc([N+](=O)[O-])c2)cn2cc(-c3ccccc3)nc12 = 430

* * *

Assayed Target: Somatostatin receptor type 2 (Homo sapiens, UniProt P30874)
Sequence (P30874 whole entry): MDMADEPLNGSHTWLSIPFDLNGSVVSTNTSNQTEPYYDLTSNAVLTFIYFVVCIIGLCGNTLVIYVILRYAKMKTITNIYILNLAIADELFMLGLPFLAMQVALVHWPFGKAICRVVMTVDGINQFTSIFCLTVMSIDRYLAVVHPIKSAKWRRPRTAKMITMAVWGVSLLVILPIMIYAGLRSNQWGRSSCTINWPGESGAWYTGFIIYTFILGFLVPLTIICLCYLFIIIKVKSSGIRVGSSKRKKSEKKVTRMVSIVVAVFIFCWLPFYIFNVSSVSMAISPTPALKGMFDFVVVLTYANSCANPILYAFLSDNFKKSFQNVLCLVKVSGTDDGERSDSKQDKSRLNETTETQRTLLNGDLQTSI
Assay Info: Inhibitory constant on human Somatostatin receptor type 2
Assay type: single protein
Readout Type: pKi
Just so you know, pKi here is -log10 of the concentration in molar units; reply with that number alone.

Guide cases for pKi, answers given:
>>> print(df.to_string())
                           structure_string  readout_type  result_value
0  CC(C)(C(=O)NCCc1c[nH]c2ccccc12)c1cn2cc(Cc3ccccc3)nc(CCCN)c2n1           pKi          5.07
1  CC(C)(C(=O)NC1CCCCC1)c1cn2cc(-c3csc4ccccc34)nc(CCCN)c2n1           pKi          5.02
2  NCCCc1nc(-c2c[nH]c3ccccc23)cn2cc(-c3ccccc3)nc12           pKi          5.22

The reported value for CC(C)(C(=O)NCCc1c[nH]c2ccccc12)c1cn2cc(-c3csc4ccccc34)nc(CCCN)c2n1 in terms of pKi is 5.49

The compound listed as NCCCc1nc(-c2cccc([N+](=O)[O-])c2)cn2cc(-c3ccccc3)nc12 shows pKi equal to 5.10

// pKi lookup, compound = NCCCc1nc(-c2csc3ccccc23)cn2cc(-c3ccccc3)nc12 , result: 5.68

* * *

Assayed Target: Somatostatin receptor type 2 (Homo sapiens, UniProt P30874)
Assay Info: Inhibitory constant on human Somatostatin receptor type 2
Let's look at some compounds and their measured Ki.

                                   compound  result_value
0  c1ccc(Cc2nc(-c3ccccc3)cn3cc(-c4ccccc4)nc23)cc1        > 5 µM

From here, focus on the item given below.
The recorded Ki for CC(C)(C(=O)NCCN)c1cn2c(n1)C(Cc1c[nH]c3ccccc13)N=C(Cc1ccccc1)C2 (configuration not stated) is > 10 µM
